Measurement Notes: chemical genetic growth profiling, strain panel (AID 1159580);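 further: tested at 20 µM; growth read once vehicle control cultures reached saturation at 30 °C; 1 = growth at the plate median or of vehicle wells; lower values mean less growth of the strain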
Measurement Conditions: S. cerevisiae deletion strains, growth OD, locus YDL185W, strain tfp1, hits give low values
Screen size: about 5,500 compounds; about 2,000 (36%) were called active. Another 18% or so got no clear call; they are omitted. The list shows a part of the results.
Quantity: normalized growth

[[record]]
compound = "COc1cc2c(cc1O)C(Cc1ccc(O)cc1)N(C)CC2 (stereo not given)"
quantity = "normalized growth"
meas_value = "1.01 (inactive)"

[[record]]
compound = "CSc1ccc2c(c1)N(CCC1CCCCN1C)c1ccccc1S2 (stereo not given)"
quantity = "normalized growth"
meas_value = "1.01 (inactive)"

[[record]]
compound = "CCCCCC1C(=O)CCC1CC(=O)OC (stereo not given)"
quantity = "normalized growth"
meas_value = "0.931 (inactive)"

[[record]]
compound = "Nc1ccncc1"
quantity = "normalized growth"
meas_value = "0.981 (inactive)"

[[record]]
compound = "CC1CCC2(OC1)OC1CC3C4CCC5C[C@@H](O)CCC5(C)C4=CCC3(C)C1[C@@H]2C (stereo not given in full)"
quantity = "normalized growth"
meas_value = "0.948 (inactive)"

[[record]]
compound = "CC(=O)OCC(=O)[C@@]1(O)[C@H](OC(C)=O)CC2C3CCC4=CC(=O)C=C[C@]4(C)[C@@]3(F)[C@@H](O)C[C@@]21C (stereo not given in full)"
quantity = "normalized growth"
meas_value = "0.99 (inactive)"

[[record]]
compound = "NNCCc1ccccc1"
quantity = "normalized growth"
meas_value = "0.98 (inactive)"

[[record]]
compound = "Nc1cc(-c2ccncc2)c[nH]c1=O"
quantity = "normalized growth"
meas_value = "0.973 (inactive)"

[[record]]
compound = "CCN(CCCc1ccccc1)CCCc1ccccc1"
quantity = "normalized growth"
meas_value = "1.03 (inactive)"

[[record]]
compound = "CC(=O)O[C@H]1CC[C@]2(C)C3C(=O)[C@@H](OC(C)=O)[C@@]4(C)C(C[C@@H]5O[C@]6(CCC(C)CO6)[C@@H](C)[C@@H]54)C3CC[C@H]2C1 (stereo not given in full)"
quantity = "normalized growth"
meas_value = "0.986 (inactive)"


----------
Measurement Notes: chemical genetic growth profiling, strain panel (AID 1159580);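 further: tested at 20 µM; growth read once vehicle control cultures reached saturation at 30 °C; 1 = growth at the plate median or of vehicle wells; lower values mean less growth of the strain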
Measurement Conditions: S. cerevisiae deletion strains, growth OD, locus YLR113W, strain HOG1, hits give low values
Among all 5,500 compounds or so, about 2,000 (36%) were called active. Inconclusive results (about 18%) are left out. The list shows a part of the results.
Quantity: normalized growth

[[record]]
compound = "CC(C)CCCC(C)C1CCC2C3CC[C@H]4CCCC[C@]4(C)C3CC[C@]12C (some centres undefined)"
quantity = "normalized growth"
meas_value = 1.03

[[record]]
compound = "C[C@H](CCC(=O)O)[C@H]1CCC2C3C(CC[C@@]21C)[C@@]1(C)CC[C@@H](O)C[C@H]1C[C@@H]3O (some centres undefined)"
quantity = "normalized growth"
meas_value = 0.937

[[record]]
compound = "O=C(O)CCC(=O)Nc1ccc(S(=O)(=O)Nc2nccs2)cc1"
quantity = "normalized growth"
meas_value = 1.02

[[record]]
compound = "O=C(O)c1ccccc1C(=O)Nc1ccc(S(=O)(=O)Nc2nccs2)cc1"
quantity = "normalized growth"
meas_value = 1

[[record]]
compound = "C=C1C2CC[C@@]3(C)[C@H](c4ccoc4)OC(=O)C[C@]13O[C@H]1CC(O)C(C)(C)C(CC(=O)OC)[C@@]21C (some centres undefined)"
quantity = "normalized growth"
meas_value = 0.996

[[record]]
compound = "CC(CCC(=O)O)[C@H]1CCC2C3C(C[C@H](O)[C@@]21C)[C@@]1(C)CC[C@@H](O)C[C@H]1C[C@H]3O (some centres undefined)"
quantity = "normalized growth"
meas_value = 0.983

[[record]]
compound = "COc1ccc(CC2CCC(=NOC(=O)c3c(Cl)cccc3Cl)CC2)cc1 (centres undefined)"
quantity = "normalized growth"
meas_value = 0.854

[[record]]
compound = "COc1ccc(CC2CCC(=NOC(=O)c3ccc(C(C)(C)C)cc3)CC2)cc1 (centres undefined)"
quantity = "normalized growth"
meas_value = 0.844

[[record]]
compound = "CC(=O)O[C@H]1C[C@@H](OC(C)=O)C(C)(C)C2CC(=O)[C@]3(C)C(CC[C@@]4(C)[C@H](c5ccoc5)OC(=O)[C@H]5O[C@]543)[C@]21C (some centres undefined)"
quantity = "normalized growth"
meas_value = 1.01

[[record]]
compound = "O=c1[nH]cnc2[nH]ncc12"
quantity = "normalized growth"
meas_value = 1.02

[[record]]
compound = "COc1cc([C@@H]2c3cc4c(cc3[C@H](OC(C)=O)[C@H]3COC(=O)[C@@H]23)OCO4)cc(OC)c1OC"
quantity = "normalized growth"
meas_value = 1.08

[[record]]
compound = "COc1cc([C@H]2Oc3cc([C@H]4Oc5cc(O)cc(O)c5C(=O)[C@@H]4O)ccc3O[C@@H]2CO)ccc1O"
quantity = "normalized growth"
meas_value = 0.986

[[record]]
compound = "CCCCS(=N)(=O)CCC(N)C(=O)O (centres undefined)"
quantity = "normalized growth"
meas_value = 0.99

[[record]]
compound = "CC(CCC(=O)O)[C@H]1CCC2C3CC[C@@H]4CCCC[C@]4(C)C3CC[C@@]21C (some centres undefined)"
quantity = "normalized growth"
meas_value = 0.977

[[record]]
compound = "O=C(CCn1c(=O)oc2ccccc21)Sc1ccc(Cl)cc1Cl"
quantity = "normalized growth"
meas_value = 0.221

[[record]]
compound = "CCCC(CCC)C(=O)O"
quantity = "normalized growth"
meas_value = 0.853

[[record]]
compound = "O=C(NNc1ccc(Cl)cc1)c1ccc(F)cc1F"
quantity = "normalized growth"
meas_value = 0.373

[[record]]
compound = "CC[C@H](CCC(C)[C@H]1CCC2C3CCC4C[C@@H](O)CC[C@]4(C)C3CC[C@@]21C)C(C)C (some centres undefined)"
quantity = "normalized growth"
meas_value = 0.991

[[record]]
compound = "NS(=O)(=O)c1cc2c(cc1Cl)NC(C1CC3C=CC1C3)NS2(=O)=O (centres undefined)"
quantity = "normalized growth"
meas_value = 1.07

